Molecular target: recombinant human ACC2 (rhACC2) (Homo sapiens (Human), UniProt O00763)
Sequence (O00763 whole entry V2141I): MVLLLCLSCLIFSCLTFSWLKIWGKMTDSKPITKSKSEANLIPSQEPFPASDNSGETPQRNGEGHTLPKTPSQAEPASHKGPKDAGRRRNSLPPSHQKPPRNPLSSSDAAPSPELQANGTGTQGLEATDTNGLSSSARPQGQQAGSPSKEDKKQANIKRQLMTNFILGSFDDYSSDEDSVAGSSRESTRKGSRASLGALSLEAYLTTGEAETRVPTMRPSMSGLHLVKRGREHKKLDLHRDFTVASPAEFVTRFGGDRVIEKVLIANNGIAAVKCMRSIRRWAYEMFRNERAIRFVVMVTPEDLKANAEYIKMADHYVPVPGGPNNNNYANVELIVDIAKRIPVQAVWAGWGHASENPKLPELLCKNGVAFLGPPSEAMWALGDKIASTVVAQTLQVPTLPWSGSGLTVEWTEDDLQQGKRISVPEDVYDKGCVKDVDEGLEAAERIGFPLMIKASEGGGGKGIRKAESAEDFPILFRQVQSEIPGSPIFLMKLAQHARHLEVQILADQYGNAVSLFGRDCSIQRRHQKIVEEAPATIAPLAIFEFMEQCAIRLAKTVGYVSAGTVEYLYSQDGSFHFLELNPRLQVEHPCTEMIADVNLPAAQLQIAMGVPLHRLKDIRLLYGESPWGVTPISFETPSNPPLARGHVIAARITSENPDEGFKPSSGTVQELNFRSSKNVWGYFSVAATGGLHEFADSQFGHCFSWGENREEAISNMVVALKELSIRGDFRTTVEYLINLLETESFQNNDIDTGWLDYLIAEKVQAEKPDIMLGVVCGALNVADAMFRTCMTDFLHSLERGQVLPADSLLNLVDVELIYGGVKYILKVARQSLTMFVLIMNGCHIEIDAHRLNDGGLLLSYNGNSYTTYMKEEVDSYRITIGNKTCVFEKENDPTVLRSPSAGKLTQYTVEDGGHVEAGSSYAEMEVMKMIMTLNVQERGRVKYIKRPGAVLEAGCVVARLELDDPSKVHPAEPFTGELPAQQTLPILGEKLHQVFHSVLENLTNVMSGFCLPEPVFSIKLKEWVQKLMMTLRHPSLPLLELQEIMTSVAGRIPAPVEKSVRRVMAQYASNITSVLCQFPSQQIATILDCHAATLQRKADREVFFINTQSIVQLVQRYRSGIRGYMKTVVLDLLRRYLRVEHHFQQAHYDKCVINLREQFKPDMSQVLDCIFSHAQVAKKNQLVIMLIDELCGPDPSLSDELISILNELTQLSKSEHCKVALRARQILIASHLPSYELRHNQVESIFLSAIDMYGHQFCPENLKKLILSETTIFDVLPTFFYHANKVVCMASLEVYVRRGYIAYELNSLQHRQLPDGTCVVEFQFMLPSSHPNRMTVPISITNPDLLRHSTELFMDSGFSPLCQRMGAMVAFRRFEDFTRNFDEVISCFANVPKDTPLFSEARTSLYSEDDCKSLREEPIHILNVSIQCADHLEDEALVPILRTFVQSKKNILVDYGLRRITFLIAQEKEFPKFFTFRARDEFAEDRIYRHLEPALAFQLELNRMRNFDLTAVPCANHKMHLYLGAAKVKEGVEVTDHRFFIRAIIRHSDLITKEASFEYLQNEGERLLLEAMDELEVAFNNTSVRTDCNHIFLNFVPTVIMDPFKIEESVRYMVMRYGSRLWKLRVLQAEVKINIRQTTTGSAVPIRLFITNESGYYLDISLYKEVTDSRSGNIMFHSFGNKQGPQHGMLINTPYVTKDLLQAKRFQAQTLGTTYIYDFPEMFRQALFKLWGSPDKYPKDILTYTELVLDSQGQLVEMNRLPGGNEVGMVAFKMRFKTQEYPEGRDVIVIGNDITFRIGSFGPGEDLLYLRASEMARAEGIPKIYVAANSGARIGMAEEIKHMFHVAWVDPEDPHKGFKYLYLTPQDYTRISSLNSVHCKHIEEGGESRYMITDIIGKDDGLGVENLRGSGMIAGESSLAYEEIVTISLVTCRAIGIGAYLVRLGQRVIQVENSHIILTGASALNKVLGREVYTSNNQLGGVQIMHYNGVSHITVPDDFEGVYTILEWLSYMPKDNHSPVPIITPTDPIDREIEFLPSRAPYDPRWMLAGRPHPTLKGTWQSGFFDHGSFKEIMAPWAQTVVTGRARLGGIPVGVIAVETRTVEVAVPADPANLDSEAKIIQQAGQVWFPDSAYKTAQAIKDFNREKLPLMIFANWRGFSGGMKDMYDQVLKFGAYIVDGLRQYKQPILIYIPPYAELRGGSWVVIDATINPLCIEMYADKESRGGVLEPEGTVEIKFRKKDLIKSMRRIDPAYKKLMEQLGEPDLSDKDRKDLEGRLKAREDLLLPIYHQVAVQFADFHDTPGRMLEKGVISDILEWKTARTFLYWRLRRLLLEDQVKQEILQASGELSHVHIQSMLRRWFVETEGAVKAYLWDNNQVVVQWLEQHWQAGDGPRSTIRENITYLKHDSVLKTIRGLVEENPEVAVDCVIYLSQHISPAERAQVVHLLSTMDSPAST
Assay: recombinant hACC2 Transcreener ADP detection FP assay
Format: biochemical
Conditions: 50 uM ATP, 50 min at 25° C.
Protocol: For example direct inhibition of ACC activity, for the compound of Formula (I) was determined using preparations of recombinant human ACC1 (rhACC1) and recombinant human ACC2 (rhACC2). [3] Preparation of rhACC2. Human ACC2 inhibition was measured using purified recombinant human ACC2 (hrACC2). […] [4] […] The data was acquired on an Envision Fluorescence reader (PerkinElmer) using a 620 excitation Cy5 FP general dual mirror, 620 excitation Cy5 FP filter, 688 emission (S) and a 688 (P) emission filter.
value.type: IC50

I'd like to know its IC50. The compound in question is COCCNc1ccc2ccc(C(=O)N3CCC4(CC3)Cc3cn(C(C)(C)C)nc3C(=O)N4)cc2n1 [Example 111]
3.3 nM

Try the compound CC(C)n1ncc2c1C(=O)NC1(CCN(C(=O)c3ccc4[nH]nc(C(N)=O)c4c3)CC1)C2 [Example 27]
132 nM

Try the compound COc1cccc2cc(C(=O)N3CCC4(CC3)Cc3cn(C(C)(C)C)nc3C(=O)N4)ccc12 [Example 50]
7.5 nM

Try the compound CC(C)(C)n1cc2c(n1)C(=O)NC1(CCN(C(=O)c3ccc4ccc(NC5CC5)nc4c3)CC1)C2 [Example 106]
2.6 nM

Try the compound CCNc1ccc2ccc(C(=O)N3CCC4(CC3)Cc3cn(C(C)(C)C)nc3C(=O)N4)cc2n1 [Example 112]
1.8 nM
